# Cmax per entry
# protocol text: Plasma concentrations and pharmacokinetics after IV and PO administration to rats
# Type: in vivo, Sprague Dawley rats
# measurement setup: male, Sprague Dawley, rat, plasma; PO 10 mg/kg, DMSO, based on mean data
// return numeric value only (unit: ng/mL, not printed)

Q) Look at this compound and give its reported Cmax. Cc1nc(-c2cnccn2)sc1C(=O)c1cnc(C[C@H]2O[C@H](CO)[C@@H](O)[C@H](O)[C@@H]2O)s1 [Compound 1b]
A) 7.07

Q) Entry Cc1nc(-c2cnccn2)sc1C(=O)c1cnc(N[C@H]2O[C@H](CO)[C@@H](O)[C@H](O)[C@@H]2O)s1 [13 of WO 2014/016361] has what Cmax?
A) 7.79
